assayDetails: GST conjugation of ethacrynic acid with glutathione (HPLC)
Type: biochemical
recordedConditions: purified enzyme, 0.4 mM electrophilic substrate, 4 mM glutathione, 0.1 M MOPS pH 7.0

- molecule: "ceb1.pk0017.a5: maize class I GST enzyme encoded by cDNA clone, expressed in E. coli (protein) MAAPVTVYGPMLSPAVARVAACLLEKDVPFQIEPVDMSKGEHKSPSFLKLQPFGQVPAFKDHLTTVFESRAICRYICDQYADSGNQALFGKKEDGAVGRAAIEQWIESEGQSFNPPSLAIIFQLAFAPMMGRTTDLAVVEQNEAKLAKVLDVYDQRLGESQYFAGDDFSPGRPCALAQCRFPCEQNQQGWLDHREKESC"
  activity of enzyme with Ethacrynic Acid: "5 nmol/min/mg"
